# Assay Overview: restored growth of temperature-sensitive Mot1-301 yeast – S. cerevisiae, ATP luminescence, 38.5C, SUMOylation pathway inhibitor project, primary screen (AID 2716);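 also: OY570 slx delta 5 strain wells were the positive control but not used for scaling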
# Measurement Conditions: S. cerevisiae Mot1-301 growth rescue, at 18.8 µM, active compounds read high, percent above DMSO median, 100 means doubled
The campaign covered roughly 320,000 compounds. About 3,300 (1%) were called active. The list comes from a sample in which actives are over-represented; it also holds close analogues and randomly drawn compounds.
Entries and their growth rescue

{"Molecule": "CC(=O)c1ccc(NC(=O)c2ccc(-n3cncn3)c([N+](=O)[O-])c2)cc1", "Endpoint Unit": "%", "growth rescue": 62.2}
{"Molecule": "Nc1c(-c2cccc(Cl)c2)cnn1-c1cccc([N+](=O)[O-])c1", "Endpoint Unit": "%", "growth rescue": 0.816}
{"Molecule": "O=C1CC(c2ccccc2)C(=O)N1c1cccc(O)c1 (configuration not stated)", "Endpoint Unit": "%", "growth rescue": 564}
{"Molecule": "CCN(CC)C(=O)CSc1nnc(CNc2ccc(F)cc2)n1Cc1ccco1", "Endpoint Unit": "%", "growth rescue": 543}
{"Molecule": "O=C1OCC2=C1C(c1ccccc1)CC(=O)N2c1cccc(F)c1 (configuration not stated)", "Endpoint Unit": "%", "growth rescue": 4.11}
{"Molecule": "COc1cc(CN2CCNC(=O)C2CC(=O)NCCc2ncccc2C)cc(OC)c1 (configuration not stated)", "Endpoint Unit": "%", "growth rescue": 662}
{"Molecule": "COc1ccc(NC(=O)CSc2nnc(-c3cccs3)n2Cc2ccco2)cc1OC", "Endpoint Unit": "%", "growth rescue": 22.9}
{"Molecule": "O=C(c1cccnc1)N1CCN(S(=O)(=O)c2cccs2)CC1", "Endpoint Unit": "%", "growth rescue": -2.05}
{"Molecule": "CCC/C=C(\\CCC)C(NC(=O)Cc1ccccc1)c1ccc(C(=O)OC)cc1 (configuration not stated)", "Endpoint Unit": "%", "growth rescue": -14.4}
{"Molecule": "Cn1c(=O)c2ccccc2n(CC(=O)Nc2ccc3c(c2)OCCO3)c1=O", "Endpoint Unit": "%", "growth rescue": 0.839}
{"Molecule": "N#Cc1ccc(S(=O)(=O)NCC(=O)OCC(=O)NCCc2ccccc2)cc1", "Endpoint Unit": "%", "growth rescue": 0.284}
{"Molecule": "COc1ccc(C(=O)COC(=O)Cn2cnc3c2c(=O)n(C)c(=O)n3C)c(OC)c1", "Endpoint Unit": "%", "growth rescue": -7.8}
{"Molecule": "CNS(=O)(=O)c1cnccc1N1CCN(c2cccc(C)c2)CC1", "Endpoint Unit": "%", "growth rescue": -3.12}
{"Molecule": "Cc1nnc(NC(=O)Cn2c(=O)sc3ccccc32)s1", "Endpoint Unit": "%", "growth rescue": 0.0426}
{"Molecule": "COc1cccc2cc(C(=O)NCc3ccc(C)cc3)c(=N)oc12", "Endpoint Unit": "%", "growth rescue": -7.41}
{"Molecule": "C[C@H](CO)N1C[C@H](C)[C@H](CN(C)CC2CC2)Oc2ccc(NC(=O)CCN3CCOCC3)cc2C1=O", "Endpoint Unit": "%", "growth rescue": -13.9}
{"Molecule": "CN1C(=O)CC(c2ccccc2)C1=O (configuration not stated)", "Endpoint Unit": "%", "growth rescue": 8.06}
{"Molecule": "Cc1ccc(C(=O)N/C(=C\\c2ccc(F)cc2)C(=O)NCCN2CCOCC2)cc1", "Endpoint Unit": "%", "growth rescue": 49.4}
{"Molecule": "Cc1ccc(NC(=O)CCNC(=O)c2ccc([N+](=O)[O-])cc2)cc1S(=O)(=O)N1CCOCC1", "Endpoint Unit": "%", "growth rescue": -3.52}
{"Molecule": "O=C(Nn1cnnc1)c1cc(Cl)ccc1Cl", "Endpoint Unit": "%", "growth rescue": 4.55}
{"Molecule": "O=C(Cn1c(=O)sc2ccccc21)Nc1ccc2c(c1)OCCO2", "Endpoint Unit": "%", "growth rescue": 284}
{"Molecule": "Cn1c(N)c(C(=O)COC(=O)c2ccccc2NCc2ccco2)c(=O)n(C)c1=O", "Endpoint Unit": "%", "growth rescue": 72.4}
